Experiment: qHTS assay for small molecule activators of the human pregnane X receptor (PXR) signaling pathway (AID 720659); also: 0% is about no effect
Details: DPX-2 HepG2 CYP3A4-luciferase, 24 h; series mostly up to 92.3 µM
The source made the active and inactive calls. No rule for the calls is given here.
endpoint: outcome

| smiles-notation | endpoint | measured-result |
| --- | --- | --- |
| O=c1[nH]cnc2c1ncn2[C@H]1CC[C@@H](CO)O1 | outcome | inactive |
| CC(=O)N[C@@H](CS)C(=O)O | outcome | inactive |
| O=C(O)Cc1cccc2ccccc12 | outcome | inactive |
| CC(=O)c1ccc(S(=O)(=O)NC(=O)NC2CCCCC2)cc1 | outcome | inactive |
| CCn1cc(C(=O)O)c(=O)c2ccc(C)nc21 | outcome | inactive |
| O=C(O)c1cc(O)c2c(c1)C(=O)c1cccc(O)c1C2=O | outcome | inactive |
| O=C(O)c1cc(-c2ccccc2)nc2ccccc12 | outcome | inactive |

====

Assay: qHTS of pediatric cancer cell lines to identify multiple opportunities for drug repurposing: Confirmatory screen for LAN-5 cells (AID 1347113); also: nearly all actives have a fitted effect of over 65% in size
Details: LAN-5 neuroblastoma cell viability; series mostly up to 45.9 µM
Inconclusive results are not listed. Active and inactive are the calls of the source. Calls come from the whole dose curve; as a rule, active = well fitted cell-killing curve with a large enough effect; inconclusive = small, poorly fitted or top-dose-only effect, or effect the other way; inactive = no such curve, though single readings can be large or run the other way.
Possible outcomes: active, inactive

| compound | class-label |
| --- | --- |
| CCOc1ccc(Nc2nc(-c3c(C)nc4ccccn34)cs2)cc1 | active |
| O=c1cc(-c2ccc(O)cc2)oc2cc(O)cc(O)c12 | inactive |
| COc1ccc(-c2nc(N3CCOCC3)c3sc(CN(C)c4ncc(C(=O)NO)cn4)cc3n2)cn1 | active |
| CC1(C)CCC2=C(O1)c1ccccc1C(=O)C2=O | active |
| NC1=N[C@@]2(c3cc(NC(=O)c4ccc(F)cn4)ccc3F)COC[C@@H]2CS1 | inactive |
| CC(C)n1nc(-c2ccc3oc(N)nc3c2)c2c(N)ncnc21 | active |
| NS(=O)(=O)c1cccc2c1C(=O)c1cccc(O)c1C2=O | active |
| O=C(O)c1ccc(-c2c[nH]c3ncc(-c4ccccc4)cc23)cc1C1CCCC1 | inactive |
| CC1(C)CCC[C@@]2(C)[C@@H]1CC[C@@]1(C)OC(=O)C[C@H]21 | inactive |
| CN(C)C1CCN(C(=O)c2ccc(NC(=O)Nc3nc(N4CCOCC4)nc(N4CCOCC4)n3)cc2)CC1 | active |
| O=C1NC(=O)C(=Cc2ccc3c(c2)OC(F)(F)O3)S1 | inactive |
| CC[C@]1(O)C[C@@H]2CN(CCc3c([nH]c4ccccc34)[C@@](C(=O)OC)(c3cc4c(cc3OC)N(C=O)[C@@H]3C45CCN4CC=C[C@](CC)([C@H]45)[C@@H](OC(C)=O)[C@]3(O)C(=O)OC)C2)C1 (stereo not given in full) | inactive |
| OC[C@H]1O[C@@H](n2cnc3c2NC=NC[C@@H]3O)C[C@H]1O | inactive |
| CC[C@]1(O)C[C@@H]2CN(CCc3c([nH]c4ccccc34)[C@@](C(=O)OC)(c3cc4c(cc3OC)N(C)[C@H]3[C@@](O)(C(=O)OC)[C@H](OC(C)=O)[C@]5(CC)C=CCN6CC[C@]43[C@@H]65)C2)C1 | active |
| O=C1c2ccccc2-[n+]2ccc3c([nH]c4ccccc43)c21 | active |

====

Experiment: qHTS of pediatric cancer cell lines to identify multiple opportunities for drug repurposing: Confirmatory screen for control Hh wild type fibroblast cells (AID 1347121);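 also: plate controls were DMSO for no effect and bortezomib for full effect; nearly all actives have a fitted effect of over 70% in size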
Settings: viability qHTS; series mostly up to 45.9 µM
Protocol: Drug repurposing or repositioning has been offered as a strategy for drug development in oncology programs. […] [1] Shen, M et al. Quantitative high-throughput phenotypic screening of pediatric cancer cell lines identifies multiple opportunities for drug repurposing. […] Cells were assayed in growth media at a density of 500-1,000 cells/well. […] After a 15 min incubation at room temperature, samples were analyzed for luminescence intensity using a ViewLux High-throughput CCD imager equipped with clear filters.
Records with an inconclusive call do not appear. The source made the active and inactive calls. Calls come from the whole dose curve; as a rule, active = well fitted cell-killing curve with a large enough effect; inconclusive = small, poorly fitted or top-dose-only effect, or effect the other way; inactive = flat fitted curve, though single readings scatter.

| smiles-notation | outcome |
| --- | --- |
| CC1(C)CCC(CN2CCN(c3ccc(C(=O)NS(=O)(=O)c4ccc(NCC5CCOCC5)c([N+](=O)[O-])c4)c(Oc4cnc5[nH]ccc5c4)c3)CC2)=C(c2ccc(Cl)cc2)C1 | inactive |
| CC(=O)Nc1ccc([C@H](C)C(=O)Nc2ncc(C(C)C)s2)cc1 | inactive |
| CO[C@H]1C[C@@H]2CC[C@@H](C)[C@@](O)(O2)C(=O)C(=O)N2CCCC[C@@H]2C(=O)O[C@H]([C@H](C)C[C@@H]2CC[C@H](OP(C)(C)=O)[C@H](OC)C2)CC(=O)[C@H](C)C=C(C)[C@@H](O)[C@@H](OC)C(=O)[C@H](C)C[C@H](C)C=CC=CC=C1C | inactive |

====

Assay: Quantitative High-Throughput drug screen in 47 multiple myeloma cell lines against the NCATS MIPE library collection: Karpas25_ECACC cell viability assay (AID 1918968; also: nearly all actives have a fitted effect of over 35% in size)
Conditions: Karpas25 myeloma viability, CellTiter-Glo ATP, 48 h; series mostly up to 45.8 µM
From the text: PI: Beverly A. Mock Ph.D. Laboratory of Cancer Biology and Genetics, Center for Cancer Research, National Cancer Institute, National Institute of Health, Bethesda, Maryland […] 5; Detector; 425V; Luminescence; Viewlux PerkinElmer. […] 1. […] Briefly, the corresponding myeloma cell lines were screened in 1,536-well plates with 500 cells, 5-uL per well for inhibition of cell viability (assessed by measuring ATP levels with CellTiterGlo). […]
Records with an inconclusive call do not appear. The source made the active and inactive calls. Calls come from the whole dose curve; as a rule, active = well fitted cell-killing curve with a large enough effect; inconclusive = small, poorly fitted or top-dose-only effect, or effect the other way; inactive = no such curve, though single readings can be large or run the other way.
Possible outcomes: active, inactive

| smiles-notation | class-label |
| --- | --- |
| COc1cccc(-c2cc(=O)c3ccccc3o2)c1N | active |
| O=C(O)c1ccccc1C(=O)Nc1ccc(-c2ccccc2)cc1 | inactive |
| c1ccc2c(Cc3c[nH]c4ccccc34)c[nH]c2c1 | active |
| CO[C@H]1C[C@@H]2CC[C@@H](C)[C@@](O)(O2)C(=O)C(=O)N2CCCC[C@@H]2C(=O)O[C@H]([C@H](C)C[C@@H]2CC[C@H](OCCO)[C@H](OC)C2)CC(=O)[C@H](C)C=C(C)[C@@H](O)[C@@H](OC)C(=O)[C@H](C)C[C@H](C)C=CC=CC=C1C | active |

====

Assay: qHTS Screen of the MIPE 4.0 Collection Against Ewings Sarcoma (TC71) (AID 1259253); also: nearly all actives have a fitted effect of over 40% in size
Conditions: TC71 Ewing sarcoma viability, CellTiter-Glo, 48 h; series mostly up to 45.8 µM
Experimental: There is a large unmet medical need for treatments for Ewing sarcoma, a pediatric sarcoma. […] Using the NCATS developed oncology compound library called the Mechanism of Interrogation Plate (MIPE), four Ewing sarcoma cell lines were evaluated (TC32, TC71, RDES, EW8). Compounds, in a 12-point titration series, were incubated with cells for 48 hours and the read out was cell viability (CellTiter-Glo from Promega). […]
Records with an inconclusive call do not appear. The source made the active and inactive calls. The call rests on the fitted dose curve; in most records, active means well fitted inhibition curve with a large enough effect; inconclusive means small, poorly fitted or top-dose-only effect; inactive means no such curve, though single readings can be large or run the other way.
Possible outcomes: yes (1) (active), no (0) (inactive)

| smiles-notation | class-label |
| --- | --- |
| C[C@@H]1CCN(C(=O)CC#N)C[C@H]1N(C)c1ncnc2[nH]ccc12 | no (0) |
| O=C(Nc1ccccc1-c1cn2c(CN3CCNCC3)csc2n1)c1cnc2ccccc2n1 | yes (1) |
| CCOC(=O)O[C@]1(C(=O)OCCl)CC[C@@H]2[C@H]3CCC4=CC(=O)C=C[C@]4(C)[C@@H]3[C@@H](O)C[C@@]21C | no (0) |
| Nc1ncnc2c1ncn2[C@@H]1O[C@@H](CO)[C@H](O)[C@H]1O | no (0) |
| CC(=O)Nc1ccc([C@H](C)C(=O)Nc2ncc(C(C)C)s2)cc1 | yes (1) |
| Nc1ncnc2c1nc(Cl)n2[C@@H]1O[C@H](CO)[C@@H](O)[C@@H]1O | yes (1) |
| COc1cc(O)c2c(c1)C(=O)c1cc(C)cc(O)c1C2=O | no (0) |

====

Assay: Quantitative High-Throughput drug screen in 47 multiple myeloma cell lines against the NCATS MIPE library collection: U266_ATCC cell viability assay (AID 1919864); also: nearly all actives have a fitted effect of over 35% in size
Conditions: U266 myeloma viability, CellTiter-Glo ATP luminescence, 48 h; series mostly up to 45.8 µM
Results filed as inconclusive are left out. The source made the active and inactive calls. Calls follow the shape of the dose curve; as a rule, active = well fitted cell-killing curve with a large enough effect; inconclusive = small, poorly fitted or top-dose-only effect, or effect the other way; inactive = no such curve, though single readings can be large or run the other way.
Possible outcomes: active, inactive

| compound | class-label |
| --- | --- |
| CC(=Cc1ccccc1)C=C1SC(=S)N(CC(=O)O)C1=O | inactive |
| CC[C@H]1OC(=O)[C@H](C)C(=O)[C@H](C)[C@@H](O[C@H]2O[C@H](C)C[C@H](N(C)C)[C@@H]2O)[C@](C)(OC)C[C@@H](C)C(=O)[C@H](C)[C@H]2N(CCCCn3cnc(-c4cccnc4)c3)C(=O)O[C@]12C | inactive |
| C=CCc1ccc(O)c(-c2ccc(O)c(CC=C)c2)c1 | active |
| NC[C@@H]1O[C@@H](O[C@H]2[C@@H](O)[C@H](O[C@@H]3[C@@H](O)[C@@H](N)C[C@H](N)[C@H]3O[C@H]3O[C@H](CN)[C@@H](O)[C@@H](O)[C@H]3N)O[C@H]2CO)[C@H](N)[C@@H](O)[C@@H]1O | inactive |
| CC(C)=CC[C@@H](O)C1=CC(=O)c2c(O)ccc(O)c2C1=O | active |
| CC(C)n1cnc2c(NCCCCCCNC(=O)OC(C)(C)C)nc(NCCO)nc21 | active |
| CC(=O)Oc1cc2c(s1)CCN(C(C(=O)C1CC1)c1ccccc1F)C2 (configuration not stated) | active |

The values you see were collected from PubChem BioAssay (NCATS).
